# experimental details: Cytotoxicity against african green monkey Vero cells after 72 hrs by MTT assay
# Assay type: cell-based
# run conditions: chlorocebus sabaeus
quantity measured: CC50 at 72 h (µg/mL)
Please give a number only; it is taken to be in µg/mL.

Query: Entry COc1ccc(CNc2cc(C)nc(Nc3ccc(OCCCCCOc4ccc(Nc5nc(C)cc(NCc6ccc(OC)cc6)n5)cc4)cc3)n2)cc1 has what CC50 at 72 h?
Reply: 3.37

Query: Next record, please: Cc1cc(NCc2ccc(F)cc2)nc(Nc2ccc(OCCCCCOc3ccc(Nc4nc(C)cc(NCc5ccc(F)cc5)n4)cc3)cc2)n1
Reply: 41.4

Query: Cc1cc(N2CCN(C)CC2)nc(Nc2ccc(OCCCCCOc3ccc(Nc4nc(C)cc(N5CCN(C)CC5)n4)cc3)cc2)n1 ?
Reply: 10.8

Query: Next record, please: Cc1cc(NC2CCCC2)nc(Nc2ccc(OCCCCCOc3ccc(Nc4nc(C)cc(NC5CCCC5)n4)cc3)cc2)n1
Reply: 18.1

Query: Subsequent entry: Cc1cc(NC2CC2)nc(Nc2ccc(OCCCCCOc3ccc(Nc4nc(C)cc(NC5CC5)n4)cc3)cc2)n1
Reply: 0.56

Query: Record: Cc1cc(N2CCOCC2)nc(Nc2ccc(OCCCCCOc3ccc(Nc4nc(C)cc(N5CCOCC5)n4)cc3)cc2)n1
Reply: 2.06

Query: And the next one, Cc1cc(NCc2ccccc2)nc(Nc2ccc(OCCCCCOc3ccc(Nc4nc(C)cc(NCc5ccccc5)n4)cc3)cc2)n1 ?
Reply: 22.1

Query: Consider next the molecule CCN1CCN(c2cc(C)nc(Nc3ccc(OCCCCCOc4ccc(Nc5nc(C)cc(N6CCN(CC)CC6)n5)cc4)cc3)n2)CC1 in the same way.
Reply: 7.13

Query: Input Cc1cc(N2CCN(c3ccccc3)CC2)nc(Nc2ccc(OCCCCCOc3ccc(Nc4nc(C)cc(N5CCN(c6ccccc6)CC5)n4)cc3)cc2)n1
Reply: 100

Query: Another molecule: CCN(CC)CCCC(C)Nc1ccnc2cc(Cl)ccc12 (stereo not given) [CHLOROQUINE]
Reply: 75
